Molecular target: Parkinson disease protein 7 (Homo sapiens, UniProt Q99497)
Sequence (Q99497 whole entry): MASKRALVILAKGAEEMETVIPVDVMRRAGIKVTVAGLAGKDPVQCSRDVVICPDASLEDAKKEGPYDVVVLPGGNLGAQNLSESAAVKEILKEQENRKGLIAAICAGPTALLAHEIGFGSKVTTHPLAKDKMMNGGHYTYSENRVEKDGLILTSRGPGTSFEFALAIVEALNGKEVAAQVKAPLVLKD
readout: IC50 (nM)

- molecule: "COc1cc(F)cc2c1N(CCc1ccccc1)C(=O)C2=O"
  reported measurement: 54.6
- molecule: "O=C1N(CCc2ccccc2)c2ccc(F)cc2C1(Cl)Cl"
  reported measurement: 1700
- molecule: "COc1ccc(CN2C(=O)C(=O)c3cc(Br)cc(Br)c32)cc1"
  reported measurement: 267
- molecule: "O=C1C(=O)N(CCc2ccccc2)c2c(Br)cc(Br)cc21"
  reported measurement: 62.6
- molecule: "O=C1/C(=C/Cl)c2cc(F)ccc2N1CCc1ccccc1"
  reported measurement: 15000
- molecule: "CC(C)(C)CCN1C(=O)C(=O)c2cc(F)ccc21"
  reported measurement: 851
- molecule: "O=C1C(=O)N(CCc2ccccc2)c2ccccc21"
  reported measurement: 701
- molecule: "O=C1C(F)c2cc(F)ccc2N1CCc1ccccc1 (stereo not drawn)"
  reported measurement: 700
